- test name: protein stability index of a GFP-peptide fusion (yeast GPS) (PSI 1-4); higher = more stable; sorted into four equal gates, so the index is relative within each strain
- condition details: pdr5∆
protein stability index below 3 gives not fulfilled; protein stability index at or above it gives fulfilled.

| macromolecule sequence | assigned class |
| --- | --- |
| PSQGVHYKVPTDTSTTA [MED6] | not fulfilled |
| SSLVRSCGEEEFFSTNW [REC8] | fulfilled |
| PKYRDNLATWYHSAGGR [SSN3] | fulfilled |
| LQVSEKDLFELERYYKE [ARP7] | fulfilled |
| NSIDSTSRIELELKNIG [ECM29] | fulfilled |

We next turn to a different sequence, shown below.
Challenge: hey, is protein stability index for this one >= 3? NEYRLAFYQVTPEEDEE [RPL22A]
Response given: not fulfilled

###

- test name: protein stability index of a GFP-peptide fusion (yeast GPS) (PSI 1-4); higher = more stable; sorted into four equal gates, so the index is relative within each strain
- condition details: ubr1∆
assay endpoint: protein stability index
API note: the answer field is a bare number with no unit suffix.

Some entries whose results are on file:
| macromolecule sequence | protein stability index |
| --- | --- |
| KKFVSQIQKNVDLLQFP [POP3] | 2.64 |
| LSRLSTASKIIVIDVDY [MED1] | 2.41 |
| YQMHIKTSKDIAVLRSK [FAS1] | 2.46 |
| DGHYIEENSQGNILDFN [REC8] | 2.81 |
| NFYLKRFISDLLWLVLI [SWI1] | 1.59 |

protein stability index reported for this sequence EQFYTKDIIDPKLTSIF [RPN2] : 2.47

protein stability index reported for this sequence TATGIKVFSLDPQYLVD [ASC1] : 2.58

protein stability index reported for this sequence EEEQDTGESEESSSEDD [IRR1] : 3.43

protein stability index reported for this sequence FYDYIKERSIVVGRTTR [REC8] : 1.17

protein stability index reported for this sequence SRTAADILLRLCVLWDD [YCG1] : 3

###

- test name: protein stability index of a GFP-peptide fusion (yeast GPS) (PSI 1-4); higher = more stable; sorted into four equal gates, so the index is relative within each strain
- condition details: ubr1∆
protein stability index below 3 gives Not met; protein stability index at or above it gives Met.

As a guide, the following entries are already answered.
| macromolecule sequence | assigned class |
| --- | --- |
| ARTIKATLPYIKQDIPI [RPB2] | Not met |
| EGIIKPISKHSKQAIYT [RPS25A] | Not met |
| LQWHAMIELICSSATVP [AAR2] | Not met |
| IAYGASQLLLERLMISS [RET1] | Not met |
| SKFNNADDVFTGTGLQD [RPC31] | Met |
| DLKDILEKVVPLINVVV [BRR2] | Not met |
| VKNTNANPVVATDPVAA [SWP82] | Not met |
| LQVSEKDLFELERYYKE [ARP7] | Met |

Challenge: hey, is protein stability index for this one >= 3? GRDAFHLRVRVHPFHVL [RPL10]
Response given: Not met

Challenge: hey, is protein stability index for this one >= 3? DVKLVLASNFDNFDYFN [MED1]
Response given: Met

Challenge: hey, is protein stability index for this one >= 3? LWDSKELEQLVEFNRKV [RPN3]
Response given: Not met

meta.source: the supplement of paper PMC9732359
